These measurements were taken from PubChem BioAssay (NCI).

System: SNB-75 CNS
Assay: NCI-60 one-dose screen, 48 h (100 = growth as untreated, 0 = no growth, -100 = all killed)
Conditions: 10 µM unless noted
The panel holds about 83,000 compounds, 20% with a hit somewhere; the sample as a whole holds those more often.
Class field: derived from growth; ranges low = under 50%, middle = from 50% up to 90%, high = 90% and over

[
  {
    "smiles": "O=C(CN1CCCCC1)Nc1nc(-c2cc3ccccc3oc2=O)cs1",
    "assigned.category": "middle"
  },
  {
    "smiles": "Cc1cn(-c2cc(NC(=O)c3cccc(C#Cc4cccc5[nH]nc(N)c45)c3)cc(C(F)(F)F)c2)cn1",
    "assigned.category": "low"
  },
  {
    "smiles": "COc1cccc(/C=C2\\COc3ccc(O)c(O)c3C2=O)c1",
    "assigned.category": "low"
  },
  {
    "smiles": "O=C(Nc1cccc(-c2ccc(N3CCOCC3)nn2)c1)Nc1cccc(C(F)(F)F)c1",
    "assigned.category": "high"
  },
  {
    "smiles": "N#CSc1c[nH]c2cccc(/C=C/C(=O)/C=C(/C=C/c3cccc4[nH]cc(SC#N)c34)OB(F)F)c12",
    "assigned.category": "low"
  },
  {
    "smiles": "O=C(CSc1nnc(-c2cnccn2)n1-c1ccccc1)c1ccc(Cl)cc1",
    "assigned.category": "high"
  },
  {
    "smiles": "O=C(O)c1cn(C2CC2)c2cc(N3CCN(Cc4ccc5ccccc5c4O)CC3)c(F)cc2c1=O",
    "assigned.category": "low"
  },
  {
    "smiles": "CSc1nc2ccccc2cc1/C=C1/C=C(c2ccccc2)NC1=O",
    "assigned.category": "middle"
  }
]

====

System: CCRF-CEM leukemia
Assay: NCI-60 one-dose screen, 48 h
Conditions: 10 µM unless noted
Compounds without any hit were thinned out: in the full panel of roughly 83,000, 20% have a hit. The source made the active and inactive calls. The calls were made as follows: active = growth percent below 10; inactive = the rest.
Labels: TRUE = active, FALSE = inactive

[
  {
    "compound": "Cn1cc(-c2ccc3nc(-c4ccc(CC(=O)ONc5cc(C(C)(C)C)on5)cc4)cnc3c2)cn1",
    "assigned.category": "FALSE"
  },
  {
    "compound": "CC(=O)n1nc(C(=O)OC(C)(C)c2ccccc2)c2ccccc21",
    "assigned.category": "FALSE"
  },
  {
    "compound": "O=C(CSc1nc2ccc([N+](=O)[O-])cc2[nH]1)Nc1ccc([N+](=O)[O-])cc1",
    "assigned.category": "FALSE"
  },
  {
    "compound": "N#CC(C#N)N=Nc1ccc(Br)cc1",
    "assigned.category": "TRUE"
  },
  {
    "compound": "Nc1n[nH]c2cccc(C#Cc3cccc(C(=O)Nc4cc(C(F)(F)F)cc(C(F)(F)F)c4)c3)c12",
    "assigned.category": "FALSE"
  },
  {
    "compound": "COc1cccc(CNc2ccc3ncnc(Nc4ccc(F)c(Cl)c4)c3c2)c1",
    "assigned.category": "FALSE"
  },
  {
    "compound": "C1CCC([PH+](C2CCCCC2)C2CCCCC2[PH+](C2CCCCC2)C2CCCCC2)CC1.[Au].[CH-]1CCCCC1C1CCCC[N-]1 (stereo not given)",
    "assigned.category": "TRUE"
  },
  {
    "compound": "COC1=CC(c2ccc[nH]2)=N/C1=C\\c1[nH]c(C)c(C(=O)OC(C)C)c1C",
    "assigned.category": "FALSE"
  },
  {
    "compound": "CC(=O)/C(=C\\c1c(-c2ccccc2)[nH]c2ccccc12)S(C)(=O)=O",
    "assigned.category": "TRUE"
  },
  {
    "compound": "CC(C)COc1nc2c(c(=O)n(C)c(=O)n2C)n1C",
    "assigned.category": "FALSE"
  }
]

====

Test system: SNB-75 CNS
Assay: NCI-60 one-dose screen, 48 h
Conditions: 10 µM unless noted
This is part of a sample that, as a whole, favours compounds with a hit. Of some 83,000 tested, about 20% had one in any assay. Calls of active or inactive are those of the source. Rule for the calls: active = growth percent below 10; inactive = the rest.
Classes used: active, inactive

[
  {
    "compound": "COc1ccc(Cc2cnc(NC(=O)c3cc(C)oc3C)s2)cc1",
    "assigned.category": "active"
  },
  {
    "compound": "CS(=O)(=O)Nc1cncc(-c2ccc3ncnc(Nc4cncc(Cl)c4)c3c2)c1",
    "assigned.category": "inactive"
  },
  {
    "compound": "O=C(Nc1ccc(OS(=O)(=O)c2ccc(F)cc2)cc1)C1CCCCCC1",
    "assigned.category": "inactive"
  },
  {
    "compound": "CC/C(=C(/c1ccc(Cl)cc1)c1ccc(OCCN2CCCCC2)cc1)c1ccc(OC)cc1",
    "assigned.category": "inactive"
  },
  {
    "compound": "N#Cc1c(-c2ccccc2)[nH]c2ncc(-c3ccccc3)n2c1=O",
    "assigned.category": "inactive"
  },
  {
    "compound": "O=[N+]([O-])c1ccc(O)cc1Br",
    "assigned.category": "inactive"
  },
  {
    "compound": "O=C(N/N=C/c1ccc(Cl)cc1)c1[nH]c2ccc(Cl)cc2c1-c1ccccc1",
    "assigned.category": "inactive"
  },
  {
    "compound": "CN1C(=O)/C(=C\\c2c(Cl)cccc2Cl)c2ccccc21",
    "assigned.category": "inactive"
  },
  {
    "compound": "COc1ccc(C(=O)N2c3ccccc3Sc3ccccc32)c(OC)c1",
    "assigned.category": "inactive"
  },
  {
    "compound": "Nc1nc2ccccc2c2c(=O)c3cccc(Cl)c3sc12",
    "assigned.category": "inactive"
  },
  {
    "compound": "O=C(CN1C(=O)S/C(=C\\C(Cl)=C\\c2ccccc2)C1=O)NCCc1ccc(O)cc1",
    "assigned.category": "inactive"
  },
  {
    "compound": "CC1=C([Se]CC(OC(=O)CC[Se]c2ccccc2)C(=O)NC(C)(C)C)C(=O)c2ccccc2C1=O (stereo not given)",
    "assigned.category": "active"
  },
  {
    "compound": "O=C(/C=C/c1cccc(Cl)c1)c1cccc(OCCCOc2cccc(C(=O)/C=C/c3cccc(Cl)c3)c2)c1",
    "assigned.category": "inactive"
  },
  {
    "compound": "COc1ccc(-c2ccc(-c3ccc(C(=N)N)cc3)s2)cc1Cl",
    "assigned.category": "inactive"
  },
  {
    "compound": "C=C1C(=O)O[C@H]2[C@H]1CC/C(Cn1cc(-c3ccccc3)nn1)=C\\CC[C@@]1(C)O[C@@H]21",
    "assigned.category": "inactive"
  },
  {
    "compound": "O=C(Nc1nc2cc(C(=O)N3CCN(C(c4ccccc4)c4ccccc4)CC3)ccc2o1)c1ccc(NC2CCCCC2)c([N+](=O)[O-])c1",
    "assigned.category": "inactive"
  },
  {
    "compound": "COC(=O)c1c2c(c(C)[n+]([O-])c1C)C(=O)C(NCc1cccc(OC)c1)=CC2=O",
    "assigned.category": "inactive"
  },
  {
    "compound": "COc1ccc(C(C)=O)cc1S(=O)(=O)Nc1c(N)nc(SC)[nH]c1=O",
    "assigned.category": "inactive"
  },
  {
    "compound": "CC(=O)N1N=C(c2ccc(Nc3nc(Nc4ccccc4)nc(Nc4ccccc4)n3)cc2)CC1c1ccccc1 (stereo not given)",
    "assigned.category": "inactive"
  },
  {
    "compound": "Cn1ccnc1C(=O)/C=C/c1ccc(CC(=O)Nc2cc(C(F)(F)F)cc(C(F)(F)F)c2)cc1",
    "assigned.category": "inactive"
  }
]

====

Test system: COLO 205 colon
Assay: NCI-60 one-dose screen, 48 h
Settings: 10 µM unless noted
About 83,000 compounds went through this panel and 20% of them were active in at least one assay; those are over-represented in the sample as a whole. Activity calls are given as the source filed them. The calls were made as follows: active = growth percent below 10; inactive = the rest.
Labels: Yes for active, No for inactive

[
  {
    "compound": "CCOC(=O)C1=C(c2ccccc2)N=C2SC=C(c3ccc(Cl)cc3)N2C1c1ccc(Cl)cc1 (stereo not given)",
    "assigned.category": "No"
  },
  {
    "compound": "COCCNC(=O)Nc1ccc2nc(-c3cccs3)c(-c3cccs3)nc2c1",
    "assigned.category": "No"
  },
  {
    "compound": "CCCCCN1C(=O)/C(=c2\\sc3n(c2=O)C2C(NN=3)N(CC)C(=O)N2CC)c2ccccc21 (stereo not given)",
    "assigned.category": "Yes"
  },
  {
    "compound": "COc1ccc(C(=O)c2cc3c(N)c(C(=O)Nc4ccc(C)cc4)sc3nc2C)cc1",
    "assigned.category": "No"
  },
  {
    "compound": "C=CCc1c(O)c(C(=O)/C=C/c2ccccc2)c(OC)c2ccoc12",
    "assigned.category": "No"
  },
  {
    "compound": "Fc1ccc(CNc2c3ccccc3nc3ccccc23)c(F)c1",
    "assigned.category": "No"
  },
  {
    "compound": "Cc1ccc(CNc2ccc3nc(CCC4CCCCC4)[nH]c3c2)cc1",
    "assigned.category": "Yes"
  },
  {
    "compound": "Cc1c2cnccc2c(C)c2c1c1cc(C#N)ccc1n2C",
    "assigned.category": "Yes"
  },
  {
    "compound": "CCCCC1=C(P(=O)(O)O)N[C@H](C(=O)O)CS1",
    "assigned.category": "No"
  },
  {
    "compound": "Cc1csc(Nc2nc(-c3ccccn3)nc(C(Cl)(Cl)Cl)n2)n1",
    "assigned.category": "No"
  }
]
